Target: GLP-1 receptor (Homo sapiens, UniProt P43220)
Construct: expressed in transfected cells; host or cells: HEK293
Sequence (P43220 24-463): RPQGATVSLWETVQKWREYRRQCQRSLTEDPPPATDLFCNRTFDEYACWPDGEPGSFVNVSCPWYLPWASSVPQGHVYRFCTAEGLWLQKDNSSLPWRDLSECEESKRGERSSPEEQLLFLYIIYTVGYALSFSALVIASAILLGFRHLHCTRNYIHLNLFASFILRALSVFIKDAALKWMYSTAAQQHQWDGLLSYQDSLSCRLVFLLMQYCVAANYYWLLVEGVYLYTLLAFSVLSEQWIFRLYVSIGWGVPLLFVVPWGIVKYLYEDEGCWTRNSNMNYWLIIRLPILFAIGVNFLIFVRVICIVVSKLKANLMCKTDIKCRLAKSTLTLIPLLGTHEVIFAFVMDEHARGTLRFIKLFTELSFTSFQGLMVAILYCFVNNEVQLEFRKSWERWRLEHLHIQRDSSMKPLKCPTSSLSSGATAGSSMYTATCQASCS
Assay: cAMP induction, firefly luciferase reporter assay in HEK293 cells co-transfected with GLP-1 receptor
Type: cell-based
Conditions: EC50 (nM) at GLP-1 receptor, Table 16, Example 24
Source text: This example describes an exemplary method of testing the biological activity of the peptides of the present disclosures, which method involves assaying cAMP synthesis.
*1 amine or outer side, *2 acyl side, *3 side chain or, on linkers, in order; H or OH if unused. Where no end group is shown, it is not given here. Side-chain parts run from the residue outwards. [ ]: non-standard residue; d: D form. The star is where a group is joined. γGlu = O=C(O)[C@H](CCC(=O)[*:2])N[*:1]; Palmitoyl = CCCCCCCCCCCCCCCC(=O)*; Aib = CC(C)(N)C(=O)O
metric: EC50 (nM)

- H[Aib]QGTFTSDYSKYLDERAAQDFVQWLLDGGPSSGAPPPSK([γGlu-γGlu-Palmitoyl])G-NH2 [SEQ ID NO: 89]: 0.005
- H[Aib]QGTFTSDYSKYLDERAAQDFVQWLLAGGPSSGAPPPSK([γGlu-γGlu-Palmitoyl])G-NH2 [SEQ ID NO: 203]: 0.001
- H[Aib]QGTFTSDYSKYLDERAAQDFVQWLLDAGPSSGAPPPSK([γGlu-γGlu-Palmitoyl])G-NH2 [SEQ ID NO: 204]: 0.001

====

Target: GLP-1 receptor (Homo sapiens, UniProt P43220)
Construct: expressed in transfected cells; host or cells: HEK293
Assay: cAMP induction, firefly luciferase reporter assay in HEK293 cells co-transfected with GLP-1 receptor
Format: cell-based
Conditions: GLP-1 Receptor EC50, Table 10, Example 16
Where no end group is shown, it is not given here. [ ]: non-standard residue; d: D form. The star is where a group is joined. X3 = CCCCCCCCCCCCCCC(CC(=O)*)C(=O)O; Aib = CC(C)(N)C(=O)O
metric: EC50

- H[Aib]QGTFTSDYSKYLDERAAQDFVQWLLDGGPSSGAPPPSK(X3)G-NH2 [SEQ ID NO: 176]: 14 pM

====

Quick reference: EC50 of the listed items.
Target: GIP receptor (Homo sapiens)
Assay: cAMP induction, firefly luciferase reporter assay in HEK293 cells co-transfected with GIP receptor
Type: cell-based
Conditions: Table 3, Example 8; read-out: GIPR EC50
metric: EC50 (nM)

* Example 8 peptide: Tyr1, AIB2, Glu16/Lys20 lactam, Leu-Ala-Gly 27-29, GPSSGAPPPS 30-39, or a peptide lacking a lactam [mt-220] | 10.3
* Example 8 peptide: Tyr1, AIB2, Glu16/Lys20 lactam, Leu-Ala-Gly 27-29, GPSSGAPPPS 30-39, or a peptide lacking a lactam [mt-217] | 9.57
* Example 8 peptide: Tyr1, AIB2, Glu16/Lys20 lactam, Leu-Ala-Gly 27-29, GPSSGAPPPS 30-39, or a peptide lacking a lactam [mt-218] | 14.3
* Example 8 peptide: Tyr1, AIB2, Glu16/Lys20 lactam, Leu-Ala-Gly 27-29, GPSSGAPPPS 30-39, or a peptide lacking a lactam [mt-226] | 1.47
* Example 8 peptide: Tyr1, AIB2, Glu16/Lys20 lactam, Leu-Ala-Gly 27-29, GPSSGAPPPS 30-39, or a peptide lacking a lactam [mt-228] | 2.27
* Example 8 peptide: Tyr1, AIB2, Glu16/Lys20 lactam, Leu-Ala-Gly 27-29, GPSSGAPPPS 30-39, or a peptide lacking a lactam [mt-219] | 6.17

====

// values below are reported pEC50
Molecular target: glucagon receptor (Homo sapiens, UniProt P47871)
Construct: expressed in transfected cells; host or cells: HEK293
Sequence (P47871 26-477): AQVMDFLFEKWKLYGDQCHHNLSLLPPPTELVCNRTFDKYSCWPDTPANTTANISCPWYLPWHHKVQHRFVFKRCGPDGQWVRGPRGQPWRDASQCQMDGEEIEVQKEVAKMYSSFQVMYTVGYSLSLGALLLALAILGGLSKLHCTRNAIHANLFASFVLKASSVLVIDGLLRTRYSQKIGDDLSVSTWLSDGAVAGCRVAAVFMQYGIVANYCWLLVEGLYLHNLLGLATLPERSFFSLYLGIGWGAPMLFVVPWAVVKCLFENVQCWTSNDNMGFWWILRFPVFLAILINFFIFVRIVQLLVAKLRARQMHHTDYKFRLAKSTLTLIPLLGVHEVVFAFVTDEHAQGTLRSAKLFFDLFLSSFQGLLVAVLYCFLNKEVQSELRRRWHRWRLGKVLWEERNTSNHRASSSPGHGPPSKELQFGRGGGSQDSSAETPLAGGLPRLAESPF
Assay: cAMP induction, firefly luciferase reporter assay in HEK293 cells co-transfected with glucagon receptor
Format: cell-based
pEC50: −log10 of the molar value. *1 amine or outer side, *2 acyl side, *3 side chain or, on linkers, in order; H or OH if unused. Where no end group is shown, it is not given here. Side-chain parts run from the residue outwards. [ ]: non-standard residue; d: D form. The star is where a group is joined. Phe(4-NH2) = Nc1ccc(C[C@H](N)C(=O)O)cc1; γGlu = O=C(O)[C@H](CCC(=O)[*:2])N[*:1]; X6 = CCCCCCCCCCCCCCCCC(CC(=O)*)C(=O)O; X3 = CCCCCCCCCCCCCCC(CC(=O)*)C(=O)O; Palmitoyl = CCCCCCCCCCCCCCCC(=O)*; Aib = CC(C)(N)C(=O)O
metric: pEC50

* H[Aib]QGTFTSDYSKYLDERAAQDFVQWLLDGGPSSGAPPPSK(X3)G-NH2 [SEQ ID NO: 176] | 10.92
* H[Aib]QGTFTSDYSKYLDERAAQDFVQWLLDGGPSSGAPPPS[Phe(4-NH2)]([γGlu-γGlu-Palmitoyl])G-NH2 [SEQ ID NO: 145] | 11.70
* H[Aib]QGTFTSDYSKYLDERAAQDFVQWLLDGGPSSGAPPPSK(X6)G-NH2 [SEQ ID NO: 156] | 11.52
* H[Aib]QGTFTSDYSKYLDERAAQDFVQWLLDGGPSSGAPPPS[Phe(4-NH2)](X6)G-NH2 [SEQ ID NO: 146] | 11.15

====

Molecular target: GIP receptor (Homo sapiens, UniProt P48546)
Sequence (P48546 22-466): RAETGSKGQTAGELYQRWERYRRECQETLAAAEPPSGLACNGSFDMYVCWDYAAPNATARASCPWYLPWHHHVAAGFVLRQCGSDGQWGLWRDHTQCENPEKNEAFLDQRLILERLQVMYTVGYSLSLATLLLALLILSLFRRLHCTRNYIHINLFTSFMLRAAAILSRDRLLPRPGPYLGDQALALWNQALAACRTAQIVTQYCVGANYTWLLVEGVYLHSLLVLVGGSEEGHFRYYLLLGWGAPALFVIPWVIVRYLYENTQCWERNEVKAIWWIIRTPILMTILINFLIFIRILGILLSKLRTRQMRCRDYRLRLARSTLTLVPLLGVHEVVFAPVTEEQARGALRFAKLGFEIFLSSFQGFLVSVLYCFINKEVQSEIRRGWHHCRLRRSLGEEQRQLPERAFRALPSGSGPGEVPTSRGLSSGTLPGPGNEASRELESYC
Experiment: cAMP induction, firefly luciferase reporter assay in HEK293 cells co-transfected with GIP receptor
Type: cell-based
Details: Table 3; relative to the activity of the native hormone
Bridges are numbered along the chain shown (N, C = ends). Where no end group is shown, it is not given here. Side-chain parts run from the residue outwards. [ ]: non-standard residue; d: D form. Aib = CC(C)(N)C(=O)O
metric: GIPR relative activity (%)

• Example 8 peptide: Tyr1, AIB2, Glu16/Lys20 lactam, Leu-Ala-Gly 27-29, GPSSGAPPPS 30-39, or a peptide lacking a lactam [mt-227] (Y[Aib]QGTFTSDYSIYLDEQAAKEFVNWLLAGGPSSGAPPPSK([Arg-Cys(PEG 40 kDa)-Ac]); lactam 16-20; not fully specified (C-terminus)) = 1.29
• Example 8 peptide: Tyr1, AIB2, Glu16/Lys20 lactam, Leu-Ala-Gly 27-29, GPSSGAPPPS 30-39, or a peptide lacking a lactam [mt-217] = 0.20
• Example 8 peptide: Tyr1, AIB2, Glu16/Lys20 lactam, Leu-Ala-Gly 27-29, GPSSGAPPPS 30-39, or a peptide lacking a lactam [mt-225] (Y[Aib]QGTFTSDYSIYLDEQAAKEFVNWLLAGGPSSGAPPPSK([Ala-Cys(PEG 40 kDa)-Ac]); lactam 16-20; not fully specified (C-terminus)) = 0.90
